assay: Dog pharmacokinetic studies: plasma PK of ribociclib after single i.v. or oral dose; format: in vivo; conditions: male, Beagle, 0.5 mg/kg, dog m (3), po, 0.5 mg base/kg
Metric Name: bioavailability (%)
# unit: % | format: bare number

Query: Please look up its bioavailability: CN(C)C(=O)c1cc2cnc(Nc3ccc(N4CCNCC4)cn3)nc2n1C1CCCC1
Reply: 64

---

Assay: Dog pharmacokinetic studies: plasma PK of ribociclib after single i.v. or oral dose
Type: in vivo
Settings: male, Beagle, 0.5 mg/kg, dog m (3), po, 0.5 mg base/kg
Description: ADME studies (including QWBA in pigmented and non‐pigmented rats) using radiolabeled ribociclib were conducted in rat and dog. Relevant institutional and national guides for the care and use of laboratory animals were followed. […]
Metric Name: Cmax

Query: Please look up its Cmax: CN(C)C(=O)c1cc2cnc(Nc3ccc(N4CCNCC4)cn3)nc2n1C1CCCC1 [ribociclib, Ribociclib]
Reply: 10.4 ng/mL

---

assay: Dog pharmacokinetic studies: plasma PK of ribociclib after single i.v. or oral dose; assay type: in vivo; conditions: male, Beagle, dog m (4), po, 18.9 mg base/kg
Metric Name: Cmax

Query: Please look up its Cmax: CN(C)C(=O)c1cc2cnc(Nc3ccc(N4CCNCC4)cn3)nc2n1C1CCCC1 [ribociclib, Ribociclib]
Reply: 1220 ng/mL

---

Assay: Rat pharmacokinetic studies: plasma PK of ribociclib after single i.v. or oral dose
Assay type: in vivo
Settings: male, Sprague Dawley, 5 mg/kg, rat m (3), po, 5.0 mg base/kg
Experimental: ADME studies (including QWBA in pigmented and non‐pigmented rats) using radiolabeled ribociclib were conducted in rat and dog. Relevant institutional and national guides for the care and use of laboratory animals were followed. […]
Metric Name: Tmax (h)
# unit: h | format: bare number

Query: Please look up its Tmax: CN(C)C(=O)c1cc2cnc(Nc3ccc(N4CCNCC4)cn3)nc2n1C1CCCC1 [ribociclib, Ribociclib]
Reply: 2

---

experiment: Human ADME study: PK of ribociclib and LEQ803 in plasma and urine (validated bioanalytical assay); type: in vivo; conditions: human, plasma, po, 600 mg, human plasma, bioanalytical assay, single oral 600 mg, N=6; read-out: Cmax, arithmetic mean (CV %)
Metric Name: Cmax (ng/mL)
# unit: ng/mL | format: bare number

[[record]]
chemical_string = "CNC(=O)c1cc2cnc(Nc3ccc(N4CCNCC4)cn3)nc2n1C1CCCC1"
metric_name = "Cmax"
endpoint_value = 67.6


Please turn your attention to the following entry.
Query: Please look up its Cmax: CN(C)C(=O)c1cc2cnc(Nc3ccc(N4CCNCC4)cn3)nc2n1C1CCCC1
Reply: 507

---

assay: Rat pharmacokinetic studies: plasma PK of ribociclib after single i.v. or oral dose; format: in vivo; conditions: male, Hanover Wistar, iv, rat m (3), 4.1 mg base/kg
Metric Name: clearance (mL/min/kg)
# unit: mL/min/kg | format: bare number

Query: Please look up its clearance: CN(C)C(=O)c1cc2cnc(Nc3ccc(N4CCNCC4)cn3)nc2n1C1CCCC1
Reply: 46.7

---

assay: Rat pharmacokinetic studies: plasma PK of ribociclib after single i.v. or oral dose; type: in vivo; conditions: female, rat f (3), po, 11.1 mg base/kg, AUC interval 24 h
Metric Name: AUC(0-t)
// unit must come after the numeric part

Query: Please look up its AUC(0-t): CN(C)C(=O)c1cc2cnc(Nc3ccc(N4CCNCC4)cn3)nc2n1C1CCCC1
Reply: 360 ng·h/mL

Just for reference, paper PMC7287031 is where these values come from.
